Target: T1, hOrai1-mOrai1 ECL2 (VST) protein (human/mouse chimera, UniProt Q96D31 1-301)
T1 construct: also called Ch
T1 sequence (Q96D31 other isoform, or with tags, fused parts or gaps): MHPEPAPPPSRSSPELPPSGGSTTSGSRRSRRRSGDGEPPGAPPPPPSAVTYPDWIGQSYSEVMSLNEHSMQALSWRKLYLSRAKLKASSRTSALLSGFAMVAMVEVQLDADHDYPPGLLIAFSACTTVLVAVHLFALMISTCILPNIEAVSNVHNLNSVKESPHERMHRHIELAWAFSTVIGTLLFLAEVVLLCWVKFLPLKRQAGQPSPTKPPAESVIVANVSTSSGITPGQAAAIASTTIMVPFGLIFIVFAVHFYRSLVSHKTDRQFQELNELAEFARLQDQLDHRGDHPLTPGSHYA
Assay: FACS, 293EBNA
Set-up: concentration or dose not given beside the values
Measured Quantity: percent of control (POC) of FACS Geo Mean

Give percent of control (POC) of FACS Geo Mean for the following binder: mAb 2D2.1 (antibody, human IgG2, lambda, V domains shown, fully human IgG2 lambda, Campaign 1; also called mAb 2D.1) VH: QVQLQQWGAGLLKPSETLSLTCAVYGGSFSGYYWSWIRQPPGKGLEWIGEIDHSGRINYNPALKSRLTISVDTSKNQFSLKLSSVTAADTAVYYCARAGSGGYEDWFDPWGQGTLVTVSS VL: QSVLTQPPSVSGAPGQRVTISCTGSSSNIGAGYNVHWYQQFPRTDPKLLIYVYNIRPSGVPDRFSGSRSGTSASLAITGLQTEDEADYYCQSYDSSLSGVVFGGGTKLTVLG < 1%

Give me measured percent of control (POC) of FACS Geo Mean, please, for this binder: mAb 5F2.1 (antibody, human IgG2, lambda, V domains shown, fully human IgG2 lambda, Campaign 2) VH: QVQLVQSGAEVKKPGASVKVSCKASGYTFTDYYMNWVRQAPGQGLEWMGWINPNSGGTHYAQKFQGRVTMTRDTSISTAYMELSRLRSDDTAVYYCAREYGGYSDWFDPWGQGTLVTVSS VL: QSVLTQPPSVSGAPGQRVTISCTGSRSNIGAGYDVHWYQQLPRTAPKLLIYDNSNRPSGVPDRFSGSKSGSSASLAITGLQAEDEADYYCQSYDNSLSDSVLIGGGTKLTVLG < 1%

Output percent of control (POC) of FACS Geo Mean of mAb 5B1.1 (antibody, human IgG2, lambda, V domains shown, fully human IgG2 lambda, Campaign 2; also called mAb 5Bl1.1) VH: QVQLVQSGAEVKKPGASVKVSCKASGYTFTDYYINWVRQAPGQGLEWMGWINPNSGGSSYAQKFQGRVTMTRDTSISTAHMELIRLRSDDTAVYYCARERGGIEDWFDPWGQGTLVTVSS VL: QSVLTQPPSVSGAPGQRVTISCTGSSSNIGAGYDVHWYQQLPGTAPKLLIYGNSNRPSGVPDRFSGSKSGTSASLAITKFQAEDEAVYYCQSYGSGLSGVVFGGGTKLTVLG < 1%

The measurements presented in this section are drawn from patent US20120231006A1.
